The values you see were collected from PubChem BioAssay (NCI).

# Test system: OVCAR-4 ovarian
# TEST METHOD NOTES: NCI-60 one-dose screen, 48 h (100 = growth as untreated, 0 = no growth, -100 = all killed)
# SETUP CONDITIONS: 10 µM
About 83,000 compounds went through this panel and 20% of them were active in at least one assay; those are over-represented in the sample as a whole.
QUANTITY NAME: growth (%)
Numbers only, in %.

| SMILES | TARGET OR SYSTEM | QUANTITY NAME | VALUE OBSERVED |
| --- | --- | --- | --- |
| CCOC(=O)/C(=C/c1ccc(OC)cc1)N(CC)CC | OVCAR-4 ovarian | growth | 116 |
| FC(F)(F)c1ccc2c(c1)N(CCCN1CCN(C3CC3)CC1)c1ccccc1S2 | OVCAR-4 ovarian | growth | 73.6 |
| CC(=O)c1ccc(N=C(C#N)C2=C(O)c3ccccc3C2=O)cc1 | OVCAR-4 ovarian | growth | 108 |
| Cc1cc(C)cc(NCCC#N)c1 | OVCAR-4 ovarian | growth | 102 |
| O=C1N(C[P+](c2ccccc2)(c2ccccc2)c2ccccc2)CCCN1C[P+](c1ccccc1)(c1ccccc1)c1ccccc1 | OVCAR-4 ovarian | growth | 107 |

Then this compound:
Identify measured growth corresponding to C#Cc1cccc(NC(=O)c2ccc(Cl)cc2Cl)c1
95.5
